Hey, just so you know, these numbers are from paper PMC7156458.

# TARGET OR TEST SYSTEM: Aβ42 (Homo sapiens)
# Sequence (P05067 672-713): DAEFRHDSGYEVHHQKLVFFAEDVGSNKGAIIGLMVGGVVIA
# EXPERIMENT NOTES: Th-T (thioflavin-T) assay of Aβ42 aggregation
# Type: biochemical
# TEST SETTINGS: concentration 50, unit not given; time-course reading M136
Label rule met when Th-T fluorescence of Aβ42 with compound, mean of three wells (Fig. 7a source data) >= 0.8; otherwise rule not met.

| MOLECULE | ANSWER LABEL |
| --- | --- |
| C=C1CCC2C(C)(CCC=C(C)C)C(O)CCC2(C)C1Cc1c(OC)oc(CO)c(C(=O)OC)c1=O (centres unmarked) [Compound 13] | rule not met |
| C=C1CC[C@@H]2[C@](C)(CC[C@H]3O[C@H](C=C(C)C)C[C@@]23C)[C@@H]1Cc1c(OC)oc(CO)c(C(=O)OC)c1=O [Compound 21] | rule not met |
| C=C1CC[C@@H]2[C@](C)(CC[C@H]3O[C@H](C=C(C)C)C[C@@]23C)[C@@H]1Cc1c(OC)oc(CO)c(C)c1=O [Compound 20] | rule met |
| C=C1CCC2C(C)(CCC=C(C)C)C(O)CCC2(C)C1Cc1c(OC)oc(CO)c(C)c1=O (centres unmarked) [Compound 12] | rule met |

---

# TARGET OR TEST SYSTEM: UniProtKB P05067
# EXPERIMENT NOTES: Th-T (thioflavin-T) assay of Aβ42 aggregation
# Format: biochemical
# TEST SETTINGS: reading M127; compound at 20 (head suffix _20)
VALUE KIND: Th-T fluorescence, mean of three wells (Fig. 7a)

| MOLECULE | VAL |
| --- | --- |
| C=C1CC[C@@H]2[C@](C)(CC[C@H]3O[C@H](C=C(C)C)C[C@@]23C)[C@@H]1Cc1c(OC)oc(CO)c(C)c1=O | 3.121 |
| C=C1CC[C@@H]2[C@](C)(CC[C@H]3O[C@H](C=C(C)C)C[C@@]23C)[C@@H]1Cc1c(OC)oc(CO)c(C(=O)OC)c1=O | 0.9533 |
| C=C1CCC2C(C)(CCC=C(C)C)C(O)CCC2(C)C1Cc1c(OC)oc(CO)c(C(=O)OC)c1=O (centres unmarked) | 1.033 |
| C=C1CCC2C(C)(CCC=C(C)C)C(O)CCC2(C)C1Cc1c(OC)oc(CO)c(C)c1=O (centres unmarked) | 2.22 |
| C=C1CCC2C(C)(CCC=C(C)C)C(O)CCC2(C)C1Cc1c(OC)oc(C)c(C(=O)OC)c1=O (centres unmarked) | 1.639 |

---

# TARGET OR TEST SYSTEM: UniProt:P05067
# EXPERIMENT NOTES: Th-T (thioflavin-T) assay of Aβ42 aggregation
# Assay type: biochemical
# TEST SETTINGS: head suffix _20 (concentration 20); reading M79
VALUE KIND: Th-T fluorescence of Aβ42 (sheet Fig. 7a), mean of three wells

| COMPOUND | VAL |
| --- | --- |
| C=C1CCC2C(C)(CCC=C(C)C)C(O)CCC2(C)C1Cc1c(OC)oc(C)c(C(=O)OC)c1=O (centres unmarked) [Compound 14] | 1.92 |
| C=C1CC[C@@H]2[C@](C)(CC[C@H]3O[C@H](C=C(C)C)C[C@@]23C)[C@@H]1Cc1c(OC)oc(CO)c(C(=O)OC)c1=O [Compound 21] | 0.3859 |
| C=C1CCC2C(C)(CCC=C(C)C)C(O)CCC2(C)C1Cc1c(OC)oc(CO)c(C(=O)OC)c1=O (centres unmarked) [Compound 13] | 1.056 |
| C=C1CC[C@@H]2[C@](C)(CC[C@H]3O[C@H](C=C(C)C)C[C@@]23C)[C@@H]1Cc1c(OC)oc(CO)c(C)c1=O [Compound 20] | 3.362 |
| C=C1CCC2C(C)(CCC=C(C)C)C(O)CCC2(C)C1Cc1c(OC)oc(CO)c(C)c1=O (centres unmarked) [Compound 12] | 2.113 |
